Tested On: T1, extracellular domain of activin receptor type IIB (ActRIIBecd), biotinylated (Homo sapiens (Human), UniProt Q13705 27-117, amino-biotinylated with amine-PEG3-Biotin)
T1 construct: immobilised on a streptavidin-coated sensor chip; also called biotinylated ActRIIBecd; extracellular domain of ActRIIB
T1 sequence: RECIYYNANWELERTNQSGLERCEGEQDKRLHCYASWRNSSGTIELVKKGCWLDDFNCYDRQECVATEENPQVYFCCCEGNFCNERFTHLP
Test Description: BIAcore SPR, biotinylated ActRIIBecd on chip; SD ±12.12 nM
Observable: Kd (nM)
Quick note: give the figure in nM, leave out the unit.

Reported Kd of AQAKHKQRKRLKSSCKRHPLY [Clone No. 10 domain (ActRIIBecd-associated polypeptide)] : 36.4
